# target_entity: Cst6 (UniProt P40535)
# Sequence (P40535 whole entry): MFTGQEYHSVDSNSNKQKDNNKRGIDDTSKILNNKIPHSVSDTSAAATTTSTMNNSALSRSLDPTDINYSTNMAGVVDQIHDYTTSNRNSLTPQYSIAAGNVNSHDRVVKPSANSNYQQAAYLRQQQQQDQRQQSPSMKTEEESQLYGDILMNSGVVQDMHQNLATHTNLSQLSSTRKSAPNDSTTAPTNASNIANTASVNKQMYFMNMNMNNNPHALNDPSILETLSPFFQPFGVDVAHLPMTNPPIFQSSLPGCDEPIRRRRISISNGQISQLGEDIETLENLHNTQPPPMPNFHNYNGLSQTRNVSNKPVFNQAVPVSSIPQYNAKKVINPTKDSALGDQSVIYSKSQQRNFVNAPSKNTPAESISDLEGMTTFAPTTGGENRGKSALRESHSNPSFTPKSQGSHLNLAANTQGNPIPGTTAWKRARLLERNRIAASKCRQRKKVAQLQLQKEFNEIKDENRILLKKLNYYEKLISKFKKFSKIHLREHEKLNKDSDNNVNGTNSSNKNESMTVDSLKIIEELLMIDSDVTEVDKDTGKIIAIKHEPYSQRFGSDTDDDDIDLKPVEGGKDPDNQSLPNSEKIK
# method_summary: PBM E-score (8-mer binding enrichment) (E-score (-0.5 to 0.5)); higher = stronger / more preferred TF binding
# protocol_conditions: protein concentration: 200 nM; construct: GST-DNA-binding domain
Over roughly 33,000 sequences, “E-score (-0.5 to 0.5)” has its median near -0.016; the highest 2% begin near 0.31. The list comes from a sample in which the highest values are over-represented; it also holds close analogues and randomly drawn sequences.
I'd be grateful if you could share measured PBM E-score for these entries.
# answer = number (no unit)

stdin: I have this sequence here, GTTTATTA , and I need its recorded PBM E-score.
stdout: 0.164

stdin: Sample ATTATTTA — what was its PBM E-score?
stdout: 0.305

stdin: Which PBM E-score is reported for this sequence? CGGCGTCA
stdout: 0.34

stdin: What does the record list as PBM E-score for AGGCGTCA ?
stdout: 0.256

stdin: Which measured PBM E-score value corresponds to CGTTCTCC ?
stdout: -0.174

stdin: Need PBM E-score of CATACGTC , thanks.
stdout: 0.405

The values you see were collected from the supplement of paper PMC3334620.
